Test system: Veronica persica
Test: Post-emergence herbicidal action against VERPE
Format: in vivo
Settings: 20 g/ha, visual assessment about 3 weeks after treatment
Description: Seeds of monocotyledonous and dicotyledonous weed and crop plants are laid out in sandy loam soil in wood-fiber pots, covered with soil and cultivated in a greenhouse under good growth conditions. 2 to 3 weeks after sowing, the test plants are treated at the one-leaf stage. […]
The entries below come with measured Post-emergence action against VERPE in % values attached.
All answers are understood in %, so give the number only.

Below: 5 compounds and their reported Post-emergence action against VERPE in %.
> print(dat)
                             compoundstring                               readouttype  measuredresult
1  CCN(C)C(=O)c1c(C(F)F)ccc(C(=O)Nc2nnnn2C)c1C  Post-emergence action against VERPE in %              80
2  CCN(C(=O)c1c(C(F)F)ccc(C(=O)Nc2nnnn2C)c1Cl)C1CC1  Post-emergence action against VERPE in %              90
3  CCN(CC)C(=O)c1c(Br)ccc(C(=O)Nc2nnnn2C)c1Cl  Post-emergence action against VERPE in %              90
4  CCN(C)C(=O)c1c(C(F)(F)F)ccc(C(=O)Nc2nnnn2C)c1Cl  Post-emergence action against VERPE in %              80
5  CN(C(=O)c1c(C(F)F)ccc(C(=O)Nc2nnnn2C)c1Cl)C1CC1  Post-emergence action against VERPE in %              80

Assign Post-emergence action against VERPE in % to the following record: CN(C(=O)c1c(C(F)(F)F)ccc(C(=O)Nc2nnnn2C)c1Cl)C1CC1 90

Assign Post-emergence action against VERPE in % to the following record: Cc1c(C(=O)Nc2nnnn2C)ccc(C(F)(F)F)c1C(=O)N(C)C 80

Assign Post-emergence action against VERPE in % to the following record: CCn1nnnc1NC(=O)c1ccc(C(F)F)c(C(=O)N(C)CC(F)F)c1Cl 80

Assign Post-emergence action against VERPE in % to the following record: CCn1nnnc1NC(=O)c1ccc(C(F)F)c(C(=O)N(C)C)c1Cl 90

Assign Post-emergence action against VERPE in % to the following record: CN(CC(F)F)C(=O)c1c(C(F)(F)F)ccc(C(=O)Nc2nnnn2C)c1Cl 90

Assign Post-emergence action against VERPE in % to the following record: CCn1nnnc1NC(=O)c1ccc(C(F)(F)F)c(C(=O)N(C)CC(F)F)c1Cl 80

Assign Post-emergence action against VERPE in % to the following record: CN(C)C(=O)c1c(C(F)(F)F)ccc(C(=O)Nc2nnnn2C)c1Cl 80

Assign Post-emergence action against VERPE in % to the following record: CCn1nnnc1NC(=O)c1ccc(C(F)(F)F)c(C(=O)N(C)C)c1Cl 80

Assign Post-emergence action against VERPE in % to the following record: CCN(C)C(=O)c1c(C(F)F)ccc(C(=O)Nc2nnnn2CC)c1C 90
